experiment: Pharmacokinetic (PK) study of phosphate conjugates of BMS-777607 in male swiss albino mice; assay type: in vivo; details: mouse, Plasma, 2 mg/kg single intravenous bolus
Readout label: clearance (mL/min/kg)
Reply numerically in mL/min/kg, unit not repeated.

Could you share which clearance value was measured for CCOc1ccn(-c2ccc(F)cc2)c(=O)c1C(=O)Nc1ccc(Oc2ccnc(N)c2Cl)c(F)c1 [BMS-777607, reference compound] ? 19.7

* * *

Experiment: Pharmacokinetic (PK) study of phosphate conjugates of BMS-777607 in male swiss albino mice
Type: in vivo
Conditions: mouse, bone (without marrow), Bone only, 2 mg/kg single intravenous bolus
Method: For extended time points (>24 hrs), BID dosing was done 8 hr apart. The study was performed using sparse design to obtain composite profile (n=3/time point) as summarized in the table1. […] The plasma and bone with bone marrow homogenate samples were analyzed using a fit-for purpose LC-MS/MS method with a lower limit of quantification (LLOQ) of 1.00 ng/ml (plasma) and 11.0 ng/g (bone). In some instances, bone marrow was separated from bone and analyzed independently. […]
Readout label: AUC(0-t)
Answer with the number, then the unit.

Could you share which AUC(0-t) value was measured for CCOc1ccn(-c2ccc(F)cc2)c(=O)c1C(=O)Nc1ccc(Oc2ccnc(N)c2Cl)c(F)c1 [BMS-777607, reference compound] ? 296 ng·h/mL

* * *

Test: Pharmacokinetic (PK) study of phosphate conjugates of BMS-777607 in male swiss albino mice
Assay type: in vivo
Details: mouse, bone / plasma, 2 mg/kg single intravenous bolus, read-out: bone to plasma ratios (AUClast)
Method: For extended time points (>24 hrs), BID dosing was done 8 hr apart. The study was performed using sparse design to obtain composite profile (n=3/time point) as summarized in the table1. […] The plasma and bone with bone marrow homogenate samples were analyzed using a fit-for purpose LC-MS/MS method with a lower limit of quantification (LLOQ) of 1.00 ng/ml (plasma) and 11.0 ng/g (bone). In some instances, bone marrow was separated from bone and analyzed independently. […]
Readout label: Kp

Could you share which Kp value was measured for CCOc1ccn(-c2ccc(F)cc2)c(=O)c1C(=O)Nc1ccc(Oc2ccnc(N)c2Cl)c(F)c1 [BMS-777607, reference compound] ? 0.17

* * *

assay: Pharmacokinetic (PK) study of phosphate conjugates of BMS-777607 in male swiss albino mice; format: in vivo; details: mouse, Plasma, 2 mg/kg single intravenous bolus
Readout label: C0

Could you share which C0 value was measured for CCOc1ccn(-c2ccc(F)cc2)c(=O)c1C(=O)Nc1ccc(Oc2ccnc(N)c2Cl)c(F)c1 [BMS-777607, reference compound] ? 3610 ng/mL

* * *

assay: Pharmacokinetic (PK) study of phosphate conjugates of BMS-777607 in male swiss albino mice; format: in vivo; conditions: male, Swiss Albino, mouse, in vivo, iv, 2 mg/kg, Bone with Bone marrow, 2 mg/kg single intravenous bolus
Readout label: AUC(0-t) (ng·h/mL)
Reply numerically in ng·h/mL, unit not repeated.

Could you share which AUC(0-t) value was measured for Nc1nccc(Oc2ccc(NC(=O)c3c(OCP(=O)([O-])[O-])ccn(-c4ccc(F)cc4)c3=O)cc2F)c1Cl.[Na+].[Na+] ? 2420

* * *

Test: Pharmacokinetic (PK) study of phosphate conjugates of BMS-777607 in male swiss albino mice
Assay type: in vivo
Conditions: mouse, Plasma, 2 mg/kg single intravenous bolus
Procedure: For extended time points (>24 hrs), BID dosing was done 8 hr apart. The study was performed using sparse design to obtain composite profile (n=3/time point) as summarized in the table1. […] The plasma and bone with bone marrow homogenate samples were analyzed using a fit-for purpose LC-MS/MS method with a lower limit of quantification (LLOQ) of 1.00 ng/ml (plasma) and 11.0 ng/g (bone). In some instances, bone marrow was separated from bone and analyzed independently. […]
Readout label: AUC(0-inf) (ng·h/mL)
Reply numerically in ng·h/mL, unit not repeated.

Could you share which AUC(0-inf) value was measured for CCOc1ccn(-c2ccc(F)cc2)c(=O)c1C(=O)Nc1ccc(Oc2ccnc(N)c2Cl)c(F)c1 [BMS-777607, reference compound] ? 1690
